# Measurement Setup: in water, 313.15 K
Measurement Kind: solubility (mole fraction)
Just the number, please.

Asked: // solubility (mole fraction) lookup, key: `COc1c2occc2c(OC)c2c(=O)cc(C)oc12`
Given back: 1.88e-05

----------
# Measurement Setup: in methanol, 318.15 K
Measurement Kind: solubility (mole fraction)
Just the number, please.

Asked: // solubility (mole fraction) lookup, key: `COc1c2occc2c(OC)c2c(=O)cc(C)oc12`
Given back: 0.00318

----------
# Measurement Setup: in methanol, 313.15 K
Measurement Kind: solubility (mole fraction)
Just the number, please.

Asked: // solubility (mole fraction) lookup, key: `COc1c2occc2c(OC)c2c(=O)cc(C)oc12`
Given back: 0.00314

----------
# Measurement Setup: in methanol, 323.15 K
Measurement Kind: solubility (mole fraction)
Just the number, please.

Asked: // solubility (mole fraction) lookup, key: `COc1c2occc2c(OC)c2c(=O)cc(C)oc12`
Given back: 0.00332

----------
# Measurement Setup: in n-butanol, 308.15 K
Measurement Kind: solubility (mole fraction)
Just the number, please.

Asked: // solubility (mole fraction) lookup, key: `COc1c2occc2c(OC)c2c(=O)cc(C)oc12`
Given back: 0.00372

----------
# Measurement Setup: in PEG-200, 303.15 K
Measurement Kind: solubility (mole fraction)
Just the number, please.

Asked: // solubility (mole fraction) lookup, key: `COc1c2occc2c(OC)c2c(=O)cc(C)oc12`
Given back: 0.00149

----------
# Measurement Setup: in PEG-200, 313.15 K
Measurement Kind: solubility (mole fraction)
Just the number, please.

Asked: // solubility (mole fraction) lookup, key: `COc1c2occc2c(OC)c2c(=O)cc(C)oc12`
Given back: 0.00199

----------
# Measurement Setup: in n-butanol, 298.15 K
Measurement Kind: solubility (mole fraction)
Just the number, please.

Asked: // solubility (mole fraction) lookup, key: `COc1c2occc2c(OC)c2c(=O)cc(C)oc12`
Given back: 0.00355

----------
# Measurement Setup: in methanol, 308.15 K
Measurement Kind: solubility (mole fraction)
Just the number, please.

Asked: // solubility (mole fraction) lookup, key: `COc1c2occc2c(OC)c2c(=O)cc(C)oc12`
Given back: 0.003

----------
# Measurement Setup: in n-butanol, 318.15 K
Measurement Kind: solubility (mole fraction)

Asked: // solubility (mole fraction) lookup, key: `COc1c2occc2c(OC)c2c(=O)cc(C)oc12`
Given back: 0.00435

----------
# Measurement Setup: in PEG-200, 298.15 K
Measurement Kind: solubility (mole fraction)
Just the number, please.

Asked: // solubility (mole fraction) lookup, key: `COc1c2occc2c(OC)c2c(=O)cc(C)oc12`
Given back: 0.00171

----------
# Measurement Setup: in isopropanol, 308.15 K
Measurement Kind: solubility (mole fraction)
Just the number, please.

Asked: // solubility (mole fraction) lookup, key: `COc1c2occc2c(OC)c2c(=O)cc(C)oc12`
Given back: 0.00209

----------
# Measurement Setup: in DMSO, 318.15 K
Measurement Kind: solubility (mole fraction)

Asked: // solubility (mole fraction) lookup, key: `COc1c2occc2c(OC)c2c(=O)cc(C)oc12`
Given back: 0.0141

This collection of values is drawn from BigSolDB 2.1.
